Substrate: CC(=O)C=O
Experiment: purified protein
Format: biochemical, Arabidopsis thaliana
Details: true substrate is the hemithioacetal of MGO and GSH (preformed 30 min; HTA concentration calculated with Kdiss 3.0 mM), 1.7 mM GSH, 0.5 mM Ni2+, 100 mM MOPS pH 7.0, 25 °C
Some proteins, each annotated with its measured kcat/Km.
Just the number in M⁻¹ s⁻¹, nothing appended.

Sample answers from the record:
| Protein | kcat/Km, M⁻¹ s⁻¹ |
| --- | --- |
| GLXI;2 (Col-0 GLXI;2) (Arabidopsis thaliana; K229N) (protein, monomer; two domains, active site 2 (His89, Glu137, Gln150, Glu201)) MAEASDLLEWPKKDNRRFLHVVYRVGDLDRTIEFYTEVFGMKLLRKRDIPEEKYSNAFLGFGPETSNFVVELTYNYGVSSYDIGTGFGHFAISTQDVSKLVENVRAKGGNVTREPGPVKGGGSVIAFVKDPDGYTFELIQRGPTPEPFCQVMLRVGDLDRAIKFYEKALGMRLLRKIERPEYKYTIGMMGYAEEYESIVLELTYNYDVTEYTKGNAYAQIAIGTDDVYNSGEVIKIVNQELGGKITREAGPLPGLGTKIVSFLDPDGWKTVLVDNKDFLKELE | 26400 |
| GLXI;2 (Col-0 GLXI;2) (Arabidopsis thaliana; F278I/K229N) (protein, monomer; two domains, active site 2 (His89, Glu137, Gln150, Glu201)) MAEASDLLEWPKKDNRRFLHVVYRVGDLDRTIEFYTEVFGMKLLRKRDIPEEKYSNAFLGFGPETSNFVVELTYNYGVSSYDIGTGFGHFAISTQDVSKLVENVRAKGGNVTREPGPVKGGGSVIAFVKDPDGYTFELIQRGPTPEPFCQVMLRVGDLDRAIKFYEKALGMRLLRKIERPEYKYTIGMMGYAEEYESIVLELTYNYDVTEYTKGNAYAQIAIGTDDVYNSGEVIKIVNQELGGKITREAGPLPGLGTKIVSFLDPDGWKTVLVDNKDILKELE | 25800 |

Query: Looking for the measured kcat/Km of GLXI;2 (Col-0 GLXI;2) (Arabidopsis thaliana; F278I) (protein, monomer; two domains, active site 2 (His89, Glu137, Gln150, Glu201)) MAEASDLLEWPKKDNRRFLHVVYRVGDLDRTIEFYTEVFGMKLLRKRDIPEEKYSNAFLGFGPETSNFVVELTYNYGVSSYDIGTGFGHFAISTQDVSKLVENVRAKGGNVTREPGPVKGGGSVIAFVKDPDGYTFELIQRGPTPEPFCQVMLRVGDLDRAIKFYEKALGMRLLRKIERPEYKYTIGMMGYAEEYESIVLELTYNYDVTEYTKGNAYAQIAIGTDDVYKSGEVIKIVNQELGGKITREAGPLPGLGTKIVSFLDPDGWKTVLVDNKDILKELE , can you help?
Reply: 27000
